From: ChEMBL document CHEMBL2150853

Below, each entry is listed alongside its reported MNTC.
assay: Cytotoxicity against mouse N2A cells assessed as maximal tolerant concentration; format: cell-based; conditions: read-out: MTD
Write the value in µM as a bare number.

Example compounds with recorded MNTC:
Compound	Result
COc1ccc2nc3cc(Cl)ccc3c(NC3CCN(Cc4ccc(C#N)cc4)CC3)c2c1	5
COc1ccc2nc3cc(Cl)ccc3c(Nc3ccc(N4CCN(C)CC4)cc3)c2c1	2.5

Here is another compound to look at.
MNTC measured on COc1ccc2nc3cc(Cl)ccc3c(NC3CC4CCC(C3)N4Cc3ccccc3)c2c1 (stereo not given) = 2

----------
target: UniProt:P04156; assay: Binding affinity to truncated human PrP 121-231 at 50 uM by surface plasmon resonance method
Parameter Measured: RUmax (%)
Write the value in % as a bare number.

COc1ccc2nc3cc(Cl)ccc3c(N)c2c1 139

RUmax measured on Clc1ccc2c(NC3CCN(Cc4ccccc4)CC3)ccnc2c1 = 114

RUmax measured on COc1ccc2nc3cc(Cl)ccc3c(NC3CCN(Cc4ccc(C)cc4)CC3)c2c1 = 69.8

RUmax measured on COc1ccc2nc3cc(Cl)ccc3c(NC3CCN(CCc4ccc(C)cc4)CC3)c2c1 = 148

----------
test: Cytotoxicity against mouse N2A cells assessed as maximal tolerant concentration; format: cell-based; details: read-out: MTD
Below, each entry is listed alongside its reported MNTC.
Write the value in µM as a bare number.

Example compounds with recorded MNTC:
COc1ccc2nc3cc(Cl)ccc3c(NC3CCN(Cc4ccccc4)CC3)c2c1 2
CCN1CCN(c2ccc(Nc3c4ccc(Cl)cc4nc4ccc(OC)cc34)cc2)CC1 3
COc1ccc2nc3cc(Cl)ccc3c(NC3CCN(CCc4ccc(C)cc4)CC3)c2c1 3
CN1CCN(c2ccc(Nc3ccnc4cc(Cl)ccc34)cc2)CC1 10
COc1ccc2nc3cc(Cl)ccc3c(Nc3ccccc3)c2c1 5

MNTC measured on COc1ccc2nc3cc(Cl)ccc3c(NC3CCN(Cc4ccc(Cl)cc4)CC3)c2c1 = 12

MNTC measured on COc1ccc2nc3cc(Cl)ccc3c(NCC#CCN3CCN(C)CC3)c2c1 = 8

MNTC measured on COc1ccc2nc3cc(Cl)ccc3c(NC3CCN(CCCc4ccccc4)CC3)c2c1 = 4

MNTC measured on COc1ccc2nc3cc(Cl)ccc3c(NC3CCN(CCc4ccccc4)CC3)c2c1 = 2

MNTC measured on COc1ccc2nc3cc(Cl)ccc3c(NC3CCN(Cc4ccc(C)cc4)CC3)c2c1 = 5

----------
target: Major prion protein (Homo sapiens) (UniProt P04156); assay: Binding affinity to truncated human PrP 121-231 at 50 uM by surface plasmon resonance method
Cut-off 200% on RUmax: below means t, at or above means f.

Compound	Assigned Label
Clc1ccc2c(NC3CCN(Cc4ccccc4)CC3)c3c(nc2c1)CCCC3	t
COc1ccc2nc3cc(Cl)ccc3c(Nc3ccc(C(=O)N4CCN(C)CC4)cc3)c2c1	f
COc1ccc2nc3cc(Cl)ccc3c(NCCCN(C)C)c2c1	t
COc1ccc(CN2CCC(Nc3c4ccc(Cl)cc4nc4ccc(OC)cc34)CC2)cc1	t
CCN(CC)CCCNc1c2ccc(Cl)cc2nc2ccc(OC)cc12	t

Ask | Input CCN(CC)CCCC(C)Nc1c2ccc(Cl)cc2nc2ccc(OC)cc12 (stereo unspecified) [QUINACRINE] ; condition: RUmax strictly below 200%. Does it hold?
Reply | t

Ask | Input COc1ccc2nc3cc(Cl)ccc3c(Nc3ccc(N4CCN(C)CC4)cc3)c2c1 ; condition: RUmax strictly below 200%. Does it hold?
Reply | t

Ask | Input COc1ccc2nc3cc(Cl)ccc3c(NC3CCN(Cc4ccccc4)CC3)c2c1 ; condition: RUmax strictly below 200%. Does it hold?
Reply | t

Ask | Input CCN(CC)CCCCNc1c2ccc(Cl)cc2nc2ccc(OC)cc12 ; condition: RUmax strictly below 200%. Does it hold?
Reply | t

Ask | Input COc1ccc2nc3cc(Cl)ccc3c(NC3CCN(Cc4ccc(C#N)cc4)CC3)c2c1 ; condition: RUmax strictly below 200%. Does it hold?
Reply | t

Ask | Input CN1CCN(c2ccc(Nc3ccnc4cc(Cl)ccc34)cc2)CC1 ; condition: RUmax strictly below 200%. Does it hold?
Reply | t

Ask | Input CCN(CC)CCNc1c2ccc(Cl)cc2nc2ccc(OC)cc12 ; condition: RUmax strictly below 200%. Does it hold?
Reply | t

Ask | Input COc1ccc2nc3cc(Cl)ccc3c(NC3CCN(CCCc4ccccc4)CC3)c2c1 ; condition: RUmax strictly below 200%. Does it hold?
Reply | t

Ask | Input COc1ccc2nc3cc(Cl)ccc3c(Nc3ccc(CN4CCN(C)CC4)cc3)c2c1 ; condition: RUmax strictly below 200%. Does it hold?
Reply | f

Ask | Input CN1CCN(c2ccc(Nc3c4c(nc5cc(Cl)ccc35)CCCC4)cc2)CC1 ; condition: RUmax strictly below 200%. Does it hold?
Reply | t

Ask | Input COc1ccc2nc3cc(Cl)ccc3c(Nc3ccc(CN4CCCCC4)cc3)c2c1 ; condition: RUmax strictly below 200%. Does it hold?
Reply | t

Ask | Input COc1ccc2nc3cc(Cl)ccc3c(NC3CCN(Cc4ccc(Cl)cc4)CC3)c2c1 ; condition: RUmax strictly below 200%. Does it hold?
Reply | t

Ask | Input COc1ccc2nc3cc(Cl)ccc3c(Nc3ccc(N4CCN(C(C)=O)CC4)cc3)c2c1 ; condition: RUmax strictly below 200%. Does it hold?
Reply | f

Ask | Input COc1ccc2nc3cc(Cl)ccc3c(NC3CCN(CCc4ccccc4)CC3)c2c1 ; condition: RUmax strictly below 200%. Does it hold?
Reply | t

Ask | Input COc1ccc2nc3cc(Cl)ccc3c(N(C)c3ccccc3)c2c1 ; condition: RUmax strictly below 200%. Does it hold?
Reply | t

----------
assay: Cytotoxicity against mouse N2A cells assessed as maximal tolerant concentration; type: cell-based; conditions: read-out: MTD
Use 5 µM as the dividing line for MNTC, with the line itself on the TRUE side and lower values as FALSE.

See these solved cases before continuing.
Molecule	Assigned Label
COc1ccc(CN2CCC(Nc3c4ccc(Cl)cc4nc4ccc(OC)cc34)CC2)cc1	TRUE
CCN(CC)CCCC(C)Nc1c2ccc(Cl)cc2nc2ccc(OC)cc12 (stereo not drawn) [QUINACRINE]	FALSE
COc1ccc2nc3cc(Cl)ccc3c(N(C)c3ccccc3)c2c1	TRUE
COc1ccc2nc3cc(Cl)ccc3c(Nc3ccc(CN4CCN(C)CC4)cc3)c2c1	FALSE

Please find the next molecule below.
Ask | Quick check, MNTC >= 5 µM? COc1ccc2nc3cc(Cl)ccc3c(Nc3ccc(C(=O)N4CCN(C)CC4)cc3)c2c1
Reply | TRUE

----------
system: human MDR1; type: ADME, cell-based, Canis lupus familiaris; conditions: dog, MDCK-MDR1
Below, each entry is listed alongside its reported Papp A→B at 2 h, 10 µM.
Write the value in ×10⁻⁶ cm/s as a bare number.

Compound	Study Target	Result
COc1ccc2nc3cc(Cl)ccc3c(Nc3ccc(N4CCN(C)CC4)cc3)c2c1	human MDR1	0.14

Papp A→B at 2 h, 10 µM measured on CCN(CC)CCCC(C)Nc1c2ccc(Cl)cc2nc2ccc(OC)cc12 (configuration not stated) [QUINACRINE] = 1.23

----------
test: in vitro; details: dog, MDCK
Parameter Measured: efflux ratio at 2 h, 10 µM
Give the value as a plain number.

efflux ratio at 2 h, 10 µM measured on COc1ccc2nc3cc(Cl)ccc3c(Nc3ccc(N4CCN(C)CC4)cc3)c2c1 = 1.2

----------
test system: human MDR1; assay: in vitro; conditions: dog, MDCK-MDR1
Parameter Measured: efflux ratio at 2 h, 10 µM

efflux ratio at 2 h, 10 µM measured on COc1ccc2nc3cc(Cl)ccc3c(Nc3ccc(N4CCN(C)CC4)cc3)c2c1 = 2.4

----------
test: Effective permeability of the compound at pH 7.4 at 30 to 50 uM by PAMPA assay; type: ADME; details: read-out: Peff
Cut-off 10 ×10⁻⁶ cm/s on Papp at up to 50 µM: below means Satisfied, at or above means Not satisfied.

See these solved cases before continuing.
Compound	Assigned Label
COc1ccc2nc3cc(Cl)ccc3c(NC3CCN(CCc4ccc(C)cc4)CC3)c2c1	Satisfied
COc1ccc2nc3cc(Cl)ccc3c(N)c2c1	Not satisfied
COc1ccc2nc3cc(Cl)ccc3c(NC3CC4CCC(C3)N4Cc3ccccc3)c2c1 (stereo not drawn)	Satisfied
COc1ccc(CN2CCC(Nc3c4ccc(Cl)cc4nc4ccc(OC)cc34)CC2)cc1	Satisfied
Cn1c(=O)c2c(ncn2C)n(C)c1=O	Satisfied

Ask | Input COc1ccc2nc3cc(Cl)ccc3c(Nc3ccc(N4CCN(C)CC4)cc3)c2c1 ; condition: Papp at up to 50 µM strictly below 10 ×10⁻⁶ cm/s. Does it hold?
Reply | Satisfied

Ask | Input CCN1CCN(c2ccc(Nc3c4ccc(Cl)cc4nc4ccc(OC)cc34)cc2)CC1 ; condition: Papp at up to 50 µM strictly below 10 ×10⁻⁶ cm/s. Does it hold?
Reply | Satisfied
